Test system: Botrytis cinera
test-protocol: Botrytis test (bean)/protective
Type: in vivo
recorded-conditions: protective, 250 g/ha, evaluation 2 days after inoculation
quantity: Level of activity in %

Use the examples below as a reference point.
>>> reported_result("Cc1nn(C)c(F)c1C(=O)Nc1ccccc1[C@@H](C)CC(C)C [drawing 69]")
"100%"
>>> reported_result("Cc1nn(C)c(F)c1C(=O)Nc1ccccc1[C@H](C)CC(C)(C)C [drawing 72]")
"14%"
>>> reported_result("CC(C)C[C@H](C)c1ccccc1NC(=O)c1ccccc1C(F)(F)F [drawing 73]")
"90%"
>>> reported_result("CC(C)C[C@@H](C)c1ccccc1NC(=O)c1ccccc1I [drawing 76]")
"0%"
>>> reported_result("CC(C)C[C@@H](C)c1ccccc1NC(=O)c1ccccc1C(F)(F)F [drawing 74]")
"18%"
>>> reported_result("CC(C)C[C@H](C)c1ccccc1NC(=O)c1ccccc1I [drawing 75]")
"86%"
>>> reported_result("Cc1nn(C)c(F)c1C(=O)Nc1ccccc1[C@@H](C)CC(C)(C)C [drawing 71]")
"100%"

Q. // fetch Botrytis cinera Level of activity in % for Cc1nn(C)c(F)c1C(=O)Nc1ccccc1[C@H](C)CC(C)C [drawing 70]
A. 29%
